Biological target: Hypoxia-inducible factor 1-alpha (Homo sapiens) (UniProt Q16665)
Sequence (Q16665 whole entry, looked up): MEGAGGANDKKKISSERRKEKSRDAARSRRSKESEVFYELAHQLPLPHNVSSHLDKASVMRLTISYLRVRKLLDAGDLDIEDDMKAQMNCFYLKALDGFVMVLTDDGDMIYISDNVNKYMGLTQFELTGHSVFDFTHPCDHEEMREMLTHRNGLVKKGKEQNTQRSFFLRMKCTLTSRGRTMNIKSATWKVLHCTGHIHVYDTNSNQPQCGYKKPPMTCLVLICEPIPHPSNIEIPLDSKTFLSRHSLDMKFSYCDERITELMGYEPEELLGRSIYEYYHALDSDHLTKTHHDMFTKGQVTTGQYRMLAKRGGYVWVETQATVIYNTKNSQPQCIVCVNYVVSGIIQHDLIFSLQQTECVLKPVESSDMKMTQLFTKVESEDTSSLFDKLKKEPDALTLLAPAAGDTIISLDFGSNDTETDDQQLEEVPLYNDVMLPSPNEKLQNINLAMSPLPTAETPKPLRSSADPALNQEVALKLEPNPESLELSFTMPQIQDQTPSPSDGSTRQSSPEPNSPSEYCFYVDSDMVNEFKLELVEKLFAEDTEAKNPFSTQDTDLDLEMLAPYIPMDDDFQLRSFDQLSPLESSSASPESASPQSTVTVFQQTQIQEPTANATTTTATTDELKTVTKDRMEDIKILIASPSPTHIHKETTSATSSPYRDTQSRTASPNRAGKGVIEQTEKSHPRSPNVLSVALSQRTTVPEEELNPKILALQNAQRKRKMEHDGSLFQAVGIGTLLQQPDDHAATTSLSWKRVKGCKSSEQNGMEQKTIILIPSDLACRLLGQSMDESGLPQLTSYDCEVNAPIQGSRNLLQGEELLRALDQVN
Assay: activators of HIF1alpha nuclear accumulation, confirmation, imaging, fluorescence, U2OS GFP-HIF1alpha (AID 434951)
Settings: U2OS GFP-HIF1alpha nuclear intensity, high-content imaging
Activity calls are given as the source filed them.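 The calls were made as follows: active = a fitted half-maximal concentration EC50 for the rise in nuclear signal no higher than ten times the top dose tested; inconclusive = flat fit with activity between 30% and 70%, or unusable fit; inactive = EC50 beyond ten times the top dose.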
Labels: T (active), F (inactive)

compound: COc1ccc(NC(=S)c2ccc(N(C)C)cc2)cc1
class_assignment: F
//
compound: COc1ccc2nc(NC(=O)Nc3ccccc3OC)sc2c1
class_assignment: F
//
compound: Cc1ccc2nc(SCC(=O)N3CCCCC3)nc(=O)n2c1
class_assignment: F
//
compound: O=c1c2ccccc2nc2c3ccccc3c(NCCN3CCOCC3)nn12
class_assignment: F
//
compound: O=C1CCCN2N=C(SCC(=O)Nc3ccc(Br)cc3)SC2=N1
class_assignment: T
//
compound: O=C1CN(c2ccccc2)C(=O)N1
class_assignment: F
//
compound: COc1cccc2sc(Nc3nc(-c4ccccn4)cs3)nc12
class_assignment: T
//
compound: Cc1ccc(-c2cc(N)n(-c3ccc(F)cc3)n2)cc1
class_assignment: F
//
compound: CCOP(=O)(C#CC(C)(C)C)C1(O)CCCCC1 (stereo not drawn)
class_assignment: F
//
compound: CCC(=O)NC(c1ccc(C)cc1)c1ccc2cccnc2c1O (stereo not drawn)
class_assignment: T
//
compound: COc1cccc(/C=N/NC(=O)c2ccc(-c3ccccc3)cc2)c1O
class_assignment: T
//
compound: Cc1ccc(C2=NOC(=O)/C2=C\c2ccccc2)cc1
class_assignment: F
//
compound: COCc1c(C(=O)N/N=C(\C)c2ccc(Cl)s2)nnn1-c1nonc1N
class_assignment: F
//
compound: COc1ccc(N=C2C(=O)N3CCCc4cccc2c43)cc1
class_assignment: F
//
compound: COC(=O)CCCC1=CC2=CC(=O)C(C)(OC(=O)c3cccs3)C(=O)C2=CN1Cc1ccc2c(c1)OCO2 (stereo not drawn)
class_assignment: F
//
compound: FC(F)(F)c1ccc(CSc2ccccn2)cc1
class_assignment: F
//
compound: FC(F)(F)c1ccc2c(c1)NP(=S)(N1CCOCC1)c1nccn1-2 (stereo not drawn)
class_assignment: F
//
compound: Cc1cc(N/N=C/c2ccc(O)cc2O)nc(-c2ccccc2O)n1
class_assignment: T
//
compound: CCn1c(SCC(=O)c2cc(C)ccc2C)nc2cc(S(=O)(=O)N3CCOCC3)ccc21
class_assignment: F
//
compound: CCC(C)(C)c1nnc(NC(=O)C2CCN(C(=O)c3ccco3)CC2)s1
class_assignment: F
//
compound: CCCCCCn1nc(C(=O)Nc2nc3c(s2)CCCC3)c2ccccc2c1=O
class_assignment: F
//
compound: COC(=O)c1cc(S(=O)(=O)NCc2ccccc2OC)cn1C
class_assignment: F
//
compound: COc1ccc(C(=O)/C=C/C(=O)N(CC(=O)NC2CCCCC2)CC2CCCO2)c(O)c1 (stereo not drawn)
class_assignment: F

These entries and their values trace back to PubChem BioAssay AID434951.
